Origin of values: ChEMBL document CHEMBL2150857

target: Neutrophil collagenase (Homo sapiens); test: Inhibition of recombinant MMP8 catalytic site using Mca-Pro-Leu-Gly-Leu-Dpa-Ala-Arg as substrate incubated for 30 mins prior to substrate addition measured after 3 hrs by fluorimetric assay
Sequence (P22894 whole entry): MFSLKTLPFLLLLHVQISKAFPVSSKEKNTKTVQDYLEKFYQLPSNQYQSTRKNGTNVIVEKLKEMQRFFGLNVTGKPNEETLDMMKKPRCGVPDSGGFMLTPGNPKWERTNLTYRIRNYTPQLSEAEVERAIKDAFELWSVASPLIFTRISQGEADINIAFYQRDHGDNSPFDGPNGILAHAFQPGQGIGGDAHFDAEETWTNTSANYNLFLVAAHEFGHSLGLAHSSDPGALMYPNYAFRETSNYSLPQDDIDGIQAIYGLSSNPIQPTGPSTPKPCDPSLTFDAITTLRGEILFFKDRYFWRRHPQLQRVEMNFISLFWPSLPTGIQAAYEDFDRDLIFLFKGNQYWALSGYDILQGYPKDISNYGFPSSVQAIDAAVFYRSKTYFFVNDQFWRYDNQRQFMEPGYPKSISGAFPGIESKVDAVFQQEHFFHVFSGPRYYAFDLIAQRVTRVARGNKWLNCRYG
Quick list: IC50 per entry.
Give the value, in units of nM, as a plain number.

O=C1NC(=O)C(O)(CC(=O)c2ccc(-c3ccc(Cl)cc3)cc2)C(=O)N1 ... 271
CS(=O)(=O)c1ccc(-c2ccc(C(=O)CC3(O)C(=O)NC(=O)NC3=O)cc2)cc1 ... 66

Switching to the query record.
Exercise: Recorded IC50 for "Cc1ccc(-c2ccc(C(=O)CC3(O)C(=O)NC(=O)NC3=O)cc2)cc1" with Neutrophil collagenase (Homo sapiens), please?
Key: 336

---

molecular target: UniProt P14780; assay: Inhibition of recombinant MMP9 catalytic site using Mca-Pro-Leu-Gly-Leu-Dpa-Ala-Arg as substrate incubated for 30 mins prior to substrate addition measured after 3 hrs by fluorimetric assay
Sequence (P14780 whole entry): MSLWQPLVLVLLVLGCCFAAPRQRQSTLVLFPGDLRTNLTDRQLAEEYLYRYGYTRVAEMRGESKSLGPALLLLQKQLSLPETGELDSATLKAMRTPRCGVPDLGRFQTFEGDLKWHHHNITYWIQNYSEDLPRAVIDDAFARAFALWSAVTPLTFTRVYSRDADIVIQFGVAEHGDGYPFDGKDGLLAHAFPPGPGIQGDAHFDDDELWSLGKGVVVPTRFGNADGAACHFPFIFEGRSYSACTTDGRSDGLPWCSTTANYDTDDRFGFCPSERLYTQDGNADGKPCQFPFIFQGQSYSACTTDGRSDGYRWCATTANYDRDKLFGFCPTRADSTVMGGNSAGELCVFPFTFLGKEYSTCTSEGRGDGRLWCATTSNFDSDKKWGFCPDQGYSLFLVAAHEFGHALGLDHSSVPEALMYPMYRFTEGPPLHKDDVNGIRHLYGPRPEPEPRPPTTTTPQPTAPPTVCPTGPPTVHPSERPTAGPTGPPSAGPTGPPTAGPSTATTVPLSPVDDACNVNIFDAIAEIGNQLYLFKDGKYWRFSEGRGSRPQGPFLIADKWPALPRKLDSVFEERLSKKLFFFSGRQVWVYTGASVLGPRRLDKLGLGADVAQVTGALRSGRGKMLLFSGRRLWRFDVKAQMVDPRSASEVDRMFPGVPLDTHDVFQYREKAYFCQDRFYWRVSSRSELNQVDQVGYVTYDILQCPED
pIC50: −log10 of the molar value.
If the reported pIC50 equals or exceeds 6, assign label 1. If not, assign label 0.

Use these answered entries as a reference point.
O=C1NC(=O)C(O)(CC(=O)c2ccc(-c3ccsc3)cc2)C(=O)N1 ... label 1
CS(=O)(=O)c1ccc(-c2ccc(C(=O)CC3(O)C(=O)NC(=O)NC3=O)cc2)cc1 ... label 1
O=C1NC(=O)C(O)(CC(=O)c2ccc(-c3ccc(OC(F)(F)F)cc3)cc2)C(=O)N1 ... label 1
O=C1NC(=O)C(O)(CC(=O)c2ccc(-c3ccc(Cl)cc3)cc2)C(=O)N1 ... label 1
COc1ccc(-c2ccc(C(=O)CC3(O)C(=O)NC(=O)NC3=O)cc2)cc1 ... label 1
CN(C)C(=O)c1ccc(-c2ccc(C(=O)CC3(O)C(=O)NC(=O)NC3=O)cc2)cc1 ... label 0

Continue with the next molecule.
Exercise: Determine whether this molecule has pIC50 no lower than 6: "CC(=O)c1ccc(-c2ccc(C(=O)CC3(O)C(=O)NC(=O)NC3=O)cc2)cc1"
Key: label 1

---

Here's a batch of molecules along with measured IC50 for 72 kDa type IV collagenase (Homo sapiens, UniProt P08253).
Give the value, in units of nM, as a plain number.

These recorded examples may help you get a feel for the data.
COc1ccc(-c2ccc(C(=O)CC3(O)C(=O)NC(=O)NC3=O)cc2)cc1 ... 121
CC(=O)c1ccc(-c2ccc(C(=O)CC3(O)C(=O)NC(=O)NC3=O)cc2)cc1 ... 30

Exercise: May I ask what IC50 has been recorded for "CS(=O)(=O)c1ccc(-c2ccc(C(=O)CC3(O)C(=O)NC(=O)NC3=O)cc2)cc1" ?
Key: 58

Exercise: May I ask what IC50 has been recorded for "CSc1ccc(-c2ccc(C(=O)CC3(O)C(=O)NC(=O)NC3=O)cc2)cc1" ?
Key: 120

Exercise: May I ask what IC50 has been recorded for "O=C1NC(=O)C(O)(CC(=O)c2ccc(-c3ccc(Cl)cc3)cc2)C(=O)N1" ?
Key: 278

Exercise: May I ask what IC50 has been recorded for "Cc1ccc(-c2ccc(C(=O)CC3(O)C(=O)NC(=O)NC3=O)cc2)cc1" ?
Key: 301

Exercise: May I ask what IC50 has been recorded for "O=C1NC(=O)C(O)(CC(=O)c2ccc(-c3ccsc3)cc2)C(=O)N1" ?
Key: 181

---

Quick list: pIC50 per entry.
target: Neutrophil collagenase (Homo sapiens); assay: Inhibition of recombinant MMP8 catalytic site using Mca-Pro-Leu-Gly-Leu-Dpa-Ala-Arg as substrate incubated for 30 mins prior to substrate addition measured after 3 hrs by fluorimetric assay
Notebook: values listed as pIC50 are -log10 of the concentration (mol/L).

These recorded examples may help you get a feel for the data.
O=C1NC(=O)C(O)(CC(=O)c2ccc(-c3ccsc3)cc2)C(=O)N1 ... 6.82
O=C1NC(=O)C(O)(CC(=O)c2ccc([N+](=O)[O-])cc2)C(=O)N1 ... 4.20
CN(C)C(=O)c1ccc(-c2ccc(C(=O)CC3(O)C(=O)NC(=O)NC3=O)cc2)cc1 ... 5.69

Exercise: May I ask what pIC50 has been recorded for "CC(=O)c1ccc(-c2ccc(C(=O)CC3(O)C(=O)NC(=O)NC3=O)cc2)cc1" ?
Key: 6.96

Exercise: May I ask what pIC50 has been recorded for "O=C1NC(=O)C(O)(CC(=O)c2ccc(-c3cccc([N+](=O)[O-])c3)cc2)C(=O)N1" ?
Key: 5.59

Exercise: May I ask what pIC50 has been recorded for "O=C1NC(=O)C(O)(CC(=O)c2ccc(-c3ccc(OC(F)(F)F)cc3)cc2)C(=O)N1" ?
Key: 6.15

Exercise: May I ask what pIC50 has been recorded for "COc1ccc(-c2ccc(C(=O)CC3(O)C(=O)NC(=O)NC3=O)cc2)cc1" ?
Key: 6.74

Exercise: May I ask what pIC50 has been recorded for "O=C1NC(=O)C(O)(CC(=O)c2ccc(-c3ccc(CO)cc3)cc2)C(=O)N1" ?
Key: 6.68

Exercise: May I ask what pIC50 has been recorded for "CSc1ccc(-c2ccc(C(=O)CC3(O)C(=O)NC(=O)NC3=O)cc2)cc1" ?
Key: 6.50

---

Quick list: pIC50 per entry.
target: UniProt P14780; assay: Inhibition of recombinant MMP9 catalytic site using Mca-Pro-Leu-Gly-Leu-Dpa-Ala-Arg as substrate incubated for 30 mins prior to substrate addition measured after 3 hrs by fluorimetric assay
Notebook: values listed as pIC50 are -log10 of the concentration (mol/L).

These recorded examples may help you get a feel for the data.
Cc1ccc(-c2ccc(C(=O)CC3(O)C(=O)NC(=O)NC3=O)cc2)cc1 ... 6.99
O=C1NC(=O)C(O)(CC(=O)c2ccc(-c3cccc([N+](=O)[O-])c3)cc2)C(=O)N1 ... 4.56

Exercise: May I ask what pIC50 has been recorded for "O=C1NC(=O)C(O)(CC(=O)c2ccc(-c3ccc(CO)cc3)cc2)C(=O)N1" ?
Key: 6.25

Exercise: May I ask what pIC50 has been recorded for "CSc1ccc(-c2ccc(C(=O)CC3(O)C(=O)NC(=O)NC3=O)cc2)cc1" ?
Key: 7.07

---

Quick list: IC50 per entry.
target: 72 kDa type IV collagenase (Homo sapiens)
Sequence (P08253 whole entry): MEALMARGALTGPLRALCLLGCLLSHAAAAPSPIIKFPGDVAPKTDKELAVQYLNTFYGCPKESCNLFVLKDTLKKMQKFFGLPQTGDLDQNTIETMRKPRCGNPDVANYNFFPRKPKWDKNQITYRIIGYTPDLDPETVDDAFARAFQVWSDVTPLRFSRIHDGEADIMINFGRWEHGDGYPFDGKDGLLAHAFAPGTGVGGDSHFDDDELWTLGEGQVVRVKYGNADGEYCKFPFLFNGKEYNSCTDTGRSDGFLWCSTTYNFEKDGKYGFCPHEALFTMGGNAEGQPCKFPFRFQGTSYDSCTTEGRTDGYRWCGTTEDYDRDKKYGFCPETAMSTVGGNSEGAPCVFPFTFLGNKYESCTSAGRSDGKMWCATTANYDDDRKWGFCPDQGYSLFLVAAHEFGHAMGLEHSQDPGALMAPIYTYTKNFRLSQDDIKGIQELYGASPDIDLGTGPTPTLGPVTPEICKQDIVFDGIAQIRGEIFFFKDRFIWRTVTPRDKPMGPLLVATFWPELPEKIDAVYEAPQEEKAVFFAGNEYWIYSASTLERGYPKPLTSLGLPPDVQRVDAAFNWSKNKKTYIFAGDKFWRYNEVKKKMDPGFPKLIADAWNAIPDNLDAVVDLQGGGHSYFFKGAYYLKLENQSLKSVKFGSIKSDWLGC
Please provide the amount together with its unit, number first.

These recorded examples may help you get a feel for the data.
O=C1NC(=O)C(O)(CC(=O)c2ccc(-c3ccc(CO)cc3)cc2)C(=O)N1 ... 0.148 µM
O=C1NC(=O)C(O)(CC(=O)c2ccc(-c3ccc(OC(F)(F)F)cc3)cc2)C(=O)N1 ... 0.143 µM
O=C1NC(=O)C(O)(CC(=O)c2ccc(-c3cccc([N+](=O)[O-])c3)cc2)C(=O)N1 ... 8.1 µM

Exercise: May I ask what IC50 has been recorded for "CN(C)C(=O)c1ccc(-c2ccc(C(=O)CC3(O)C(=O)NC(=O)NC3=O)cc2)cc1" ?
Key: 1.34 µM
